assay: Miscibility of amines with water in the absence of CO2 (Example 5A); type: physicochemical; details: 1 mL amine + 1 mL H2O, room temperature, visual
MEASURED_QUANTITY: miscibility with water under air (absence of CO2)

In [3]: df
Out[3]:
                                    compound                 result
 0            CN(C)Cc1cc(CN(C)C)cc(CN(C)C)c1               biphasic
 1                                 CCN(CC)CC               biphasic
 2  CCCCCCCCCCCCN(C)C [N,N-dimethyldodecylamine, reference compound]               biphasic
 3  CCCN(CCC)CCC [tripropylamine, reference compound]               biphasic
 4                                 CCCCN(C)C               biphasic
 5  CCCN(CCC)CCCCN(CCC)CCC [N,N,N′,N′-tetrapropylbutane-1,4-diamine, reference compound]               biphasic
 6                      CCCN(CC)CCCCN(CC)CCC               biphasic
 7                        CCN(CC)CCCCN(CC)CC               biphasic
 8                               CCCCCCN(C)C               biphasic
 9                                  CCN(C)CC  immiscible with water
10  CN(C)c1ccccc1 [N,N-dimethylaniline, reference compound]               biphasic
11  CN1CCCCC1 [N-methylpiperidine, reference compound]           single-phase
12                           CCN(CC)C1CCCCC1  immiscible with water
13  CCN(C(C)C)C(C)C [N,N-diisopropylethylamine, reference compound]               biphasic
14                             CN(C)C1CCCCC1               biphasic
15  CCCCCCCCN(CCCCCCCC)CCCCCCCC [trioctylamine, reference compound]               biphasic
16  CCN1CCOCC1 [N-ethylmorpholine, reference compound]           single-phase
17                               CCCCN(CC)CC               biphasic
18  CN(C)CC1CC(CN(C)C)CC(CN(C)C)C1 (stereo not drawn)               biphasic
19                                CCCN(C)CCC               biphasic

Where these numbers come from: patent US8900444B2
